B1: LINE1-full (parent)
chain: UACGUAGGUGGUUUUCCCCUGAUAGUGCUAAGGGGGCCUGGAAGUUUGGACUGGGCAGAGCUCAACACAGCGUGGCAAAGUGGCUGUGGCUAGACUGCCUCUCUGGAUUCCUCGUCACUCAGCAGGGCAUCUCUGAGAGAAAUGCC

- Variants of: B1
- TEST_NAME: self-cleavage, relative activity (ratio to wild type); higher = more cleavage; in vitro, sequencing; the parent is a self-cleaving ribozyme
Assign self-cleavage to each entry below.
Lab note: record the figure alone, no unit after it.

The variant identified as U5C U96A registered its self-cleavage at 0.12

The variant identified as U45C U73C registered its self-cleavage at 1.92

The variant identified as A22U A57U registered its self-cleavage at 0.12

The variant identified as A77C U130C registered its self-cleavage at 1.89

The variant identified as U13C U96G registered its self-cleavage at 0.06

The variant identified as U45C G127A registered its self-cleavage at 0.55

The variant identified as A24G G33C registered its self-cleavage at 0.8

The variant identified as A42U G72U registered its self-cleavage at 0.62

The variant identified as U12G A94U registered its self-cleavage at 0.24

The variant identified as U52A A117U registered its self-cleavage at 1.35

The variant identified as U9C U81G registered its self-cleavage at 1.31

The variant identified as U12G U91A registered its self-cleavage at 0.97

The variant identified as U15A U112A registered its self-cleavage at 1.53

The variant identified as U47A U132C registered its self-cleavage at 1.41

The variant identified as G33U A121G registered its self-cleavage at 0.64

The variant identified as A22G G70A registered its self-cleavage at 0.18

The variant identified as U1C G144A registered its self-cleavage at 0.72

The variant identified as A64G A129G registered its self-cleavage at 0.29

The variant identified as A77G U112A registered its self-cleavage at 2.32

The variant identified as U14C A78G registered its self-cleavage at 1.22

The variant identified as A94U U104A registered its self-cleavage at 0.19

The variant identified as U15C U45G registered its self-cleavage at 1.2

The variant identified as A77U U130A registered its self-cleavage at 1.01

The variant identified as U47C U108G registered its self-cleavage at 1.41

The variant identified as U13C G144A registered its self-cleavage at 1.91

The variant identified as G80U A141U registered its self-cleavage at 1.68

The variant identified as U46C C51A registered its self-cleavage at 1.52

The variant identified as C95U U104A registered its self-cleavage at 0.1

The variant identified as A6G U15C registered its self-cleavage at 0.84

The variant identified as U13C U115A registered its self-cleavage at 1.3

The variant identified as A43G A77G registered its self-cleavage at 2.07

The variant identified as A6U U13C registered its self-cleavage at 1.25

The variant identified as A78G A141G registered its self-cleavage at 1.38

The variant identified as A24G U46C registered its self-cleavage at 1.74

The variant identified as U45A U102G registered its self-cleavage at 0

The variant identified as U29C A69U registered its self-cleavage at 0.11

The variant identified as U62G A65U registered its self-cleavage at 0.16

The variant identified as U26A G105U registered its self-cleavage at 0.57

The variant identified as U87A A141G registered its self-cleavage at 0.06

The variant identified as A77G U109A registered its self-cleavage at 1.75

The variant identified as A64U G125A registered its self-cleavage at 0.34

The variant identified as U39G U46C registered its self-cleavage at 1.36

The variant identified as G21C registered its self-cleavage at 0.69

The variant identified as U52C C113A registered its self-cleavage at 0.99

The variant identified as A22U G83A registered its self-cleavage at 0.82

The variant identified as G35U A117U registered its self-cleavage at 1.04

Values from the RNAGym collection of RNA variant scans (doi:10.7554/elife.90254)
